All figures here come from paper PMC7339578.

# procedure_details: Plasma pharmacokinetics in rats after a 30-min intravenous infusion of Kang-Ai injection
# Format: in vivo, Sprague–Dawley rats
# measurement_context: male, Sprague-Dawley, plasma; rat; 30-min iv infusion of Kang-Ai injection 6 mL/kg; Table 1 unit
outcome_measure: Vd

compound="CC(C)=CCC[C@](C)(O[C@@H]1O[C@H](CO)[C@@H](O)[C@H](O)[C@H]1O)[C@H]1CC[C@]2(C)[C@@H]1[C@H](O)C[C@@H]1[C@@]3(C)CC[C@H](O[C@@H]4O[C@H](CO)[C@@H](O)[C@H](O)[C@H]4O[C@@H]4O[C@H](CO)[C@@H](O)[C@H](O)[C@H]4O)C(C)(C)[C@@H]3CC[C@]12C [Compound D2, Ginsenoside Rd]" outcome_measure=Vd obs_value="35.7 mL/kg"
